Reported values of pKd for individual entries
- TESTED SYSTEM: T1, human CD73 (huCD73) protein, antigen of the Biacore assay (human, UniProt P21589 27-547, limits assumed)
- T1 construct: also called human CD73 antigen
- T1 sequence (looked up): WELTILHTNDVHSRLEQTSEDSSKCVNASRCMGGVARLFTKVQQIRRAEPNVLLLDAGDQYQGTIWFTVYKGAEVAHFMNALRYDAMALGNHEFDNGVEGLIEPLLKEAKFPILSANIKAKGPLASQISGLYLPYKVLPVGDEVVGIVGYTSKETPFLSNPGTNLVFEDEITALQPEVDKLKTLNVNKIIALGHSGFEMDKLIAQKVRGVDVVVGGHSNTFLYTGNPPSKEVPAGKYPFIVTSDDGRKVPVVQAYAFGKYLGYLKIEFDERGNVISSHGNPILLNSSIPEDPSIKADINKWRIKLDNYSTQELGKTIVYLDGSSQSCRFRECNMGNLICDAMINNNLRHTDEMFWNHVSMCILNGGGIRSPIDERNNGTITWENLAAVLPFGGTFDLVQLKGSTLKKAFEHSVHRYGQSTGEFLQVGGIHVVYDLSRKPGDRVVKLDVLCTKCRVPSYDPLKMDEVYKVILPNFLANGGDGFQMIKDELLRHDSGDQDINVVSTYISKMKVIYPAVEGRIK
- MEASUREMENT NOTES: SPR Biacore T200; antibody captured on Protein A chip, CD73 in flow; 1:1 Langmuir
pKd: −log10 of the molar value.

| BINDER | pKd |
| --- | --- |
| Hab110.31 (antibody, V domains shown, VL3 + VH1; recombined with human heavy and light constant regions) VH: EVQLVQSGAEVKKPGASVKVSCKASGYTFTSYTMHWVRQAPGQRLEWMGYINPNSFYIEYNQKFKDRVTITRDTSASTAYMELSSLRSEDTAVYYCARGDYDLFYDMDNWGQGTTVTVSS VL: DIQMTQSPSSLSASVGDRVTITCRASQDIGNSLNWLQQKPGGAIKRLIYATFRLDSGVPSRFSGSRSGTEYTLTISSLQPEDFADYYCQQYASFPWTFGGGTKVEIK | 9.79 |
| Hab108.64 (antibody, human IgG1, kappa, V domains shown, also called humanized antibody of mab108) VH: EVTLKQSGPGLVKPTETLTLTCTVSGFSLSSYGIQWVRQPPGKGLEWLGVIWSGGSADYNAAFISRLTISKDTSKSQVVLTMTNMDPVDTATYYCAGQYGSVWGQGTLVTVSS VL: DIQMTQSPSSLSASVGDRVTITCRASQDIGDRLNWLQQKPGGAIKRLIYATSSLDSGVPKRFSGSGSGTEYTLTISSLQPEDFATYYCLQYAGSWTFGGGTKVEIKR | 9.39 |
| Hab127.32 (antibody, V domains shown, VL3 + VH2; recombined with human heavy and light constant regions) VH: EVQLVQSGAEVKKPGASVKVSCKASGYTFTAYFMNWVMQAPGQGLEWMGRIYHNNGDTFYSQKFKGRVTMTVDKSTSTVYMELSSLRSEDTAVYYCATSYVGDWGQGTTVTVSS VL: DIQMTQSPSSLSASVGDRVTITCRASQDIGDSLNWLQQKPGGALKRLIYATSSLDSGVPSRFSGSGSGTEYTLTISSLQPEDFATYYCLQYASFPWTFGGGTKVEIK | 9.56 |
| Hab108.33 (antibody, V domains shown, VL3 + VH3; full-length antibody) VH: EVTLKESGPVLVKPTETLTLTCTVSGFSLSSYGIQWVRQPPGKLLEWLGVIWSGGSADYNAAFISRLTISKDTSKSQVVLTMTNMDPVDTATYYCAGQYGSVWGQGTLVTVSS VL: DIQMTQSPSSLSASVGDRVTITCRASQDIGDRLNWLQQKPGGAIKRLIYATSSLDSGVPSRFSGSGSGTEYTLTISSLQPEDFATYYCLQYAGSWTFGGGTKVEIK | 9.32 |

Cited source for all entries: patent US20220220218A1
